Tested on: NF-κB
method.description: High throughput assay for NF-κB reporter activity (luciferase) in stably transfected SH-SY5Y cells
Format: cell-based, human
measurement.parameters: Homo sapiens, 24 h, read-out: Emax
Assign true whenever maximal fold induction does not fall below 5; assign false whenever it does.

Record excerpt, results attached:
COC(=O)c1ccc(-c2cnc(Nc3c(F)cc(F)cc3F)o2)cc1 [Compound 72] | false
O=C(O)c1ccc(-c2cnc(Nc3cccc(F)c3)o2)cc1 [Compound 50] | true
COC(=O)c1cccc(-c2cnc(Nc3ccc(C#N)cc3)o2)c1 [Compound 88] | false
Fc1ccc(Nc2ncc(-c3cccc(-c4nnn[nH]4)c3)o2)cc1 [Compound 93] | false
CC(C)N(c1ccc(F)cc1)c1ncc(-c2cccc(C(=O)O)c2)o1 [Compound 83] | false

Could you verify whether the entry COC(=O)c1cccc(-c2cnc(Nc3ccc(Cl)cc3)o2)c1 [Compound 85] shows maximal fold induction of no less than 5?
true

Try the compound COC(=O)c1cccc(-c2cnc(N(c3ccc(F)cc3)C(C)C)o2)c1 [Compound 86]
false

Try the compound Cc1cccnc1Nc1nc(-c2ccccn2)cs1 [Compound 2]
true

Try the compound COC(=O)c1cccc(-c2cnc(Nc3ccc(C(F)(F)F)cc3)o2)c1 [Compound 87]
true
